target: VAV1 (Homo sapiens, UniProt P15498+Q96SW2); construct: A heterozygous VAV1 C-terminal HiBiT knock-in pool was generated at Monte Rosa Therapeutics from a clonal Jurkat cell; endogenous in cells; host or cells: Jurkat clone stably expressing LgBiT, homozygous GSPT1-G575N; heterozygous VAV1-HiBiT knock-in pool; test: VAV1 degradation activity, VAV1-HiBiT knock-in Jurkat luminescence assay (Example A, Table 1); assay type: cell-based; details: VAV1-HiBiT knock-in Jurkat cells, luminescence read at 6 and 24 hours; read-out: VAV1 DC50
Sequence (P15498 whole entry): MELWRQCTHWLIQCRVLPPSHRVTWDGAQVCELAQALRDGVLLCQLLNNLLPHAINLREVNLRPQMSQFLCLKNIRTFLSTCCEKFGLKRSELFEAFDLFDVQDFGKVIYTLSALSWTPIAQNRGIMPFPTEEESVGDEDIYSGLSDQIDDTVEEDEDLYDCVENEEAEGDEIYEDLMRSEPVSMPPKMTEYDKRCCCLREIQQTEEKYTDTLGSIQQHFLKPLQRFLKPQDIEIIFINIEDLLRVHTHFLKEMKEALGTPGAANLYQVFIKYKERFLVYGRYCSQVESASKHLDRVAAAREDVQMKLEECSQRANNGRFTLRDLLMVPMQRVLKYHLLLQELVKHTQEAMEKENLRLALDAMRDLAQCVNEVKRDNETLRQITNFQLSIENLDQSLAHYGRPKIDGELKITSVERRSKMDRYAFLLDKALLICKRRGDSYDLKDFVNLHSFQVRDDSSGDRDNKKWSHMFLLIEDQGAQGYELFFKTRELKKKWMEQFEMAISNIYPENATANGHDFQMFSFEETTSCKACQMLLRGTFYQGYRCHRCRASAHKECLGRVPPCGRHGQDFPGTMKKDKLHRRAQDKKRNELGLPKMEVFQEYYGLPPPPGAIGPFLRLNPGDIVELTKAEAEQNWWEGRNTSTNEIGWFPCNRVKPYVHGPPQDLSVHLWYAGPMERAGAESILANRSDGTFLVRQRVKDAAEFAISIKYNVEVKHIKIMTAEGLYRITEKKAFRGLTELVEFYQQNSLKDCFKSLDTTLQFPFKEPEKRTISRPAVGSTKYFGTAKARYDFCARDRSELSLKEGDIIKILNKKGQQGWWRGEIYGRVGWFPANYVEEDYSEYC
Sequence (Q96SW2 whole entry): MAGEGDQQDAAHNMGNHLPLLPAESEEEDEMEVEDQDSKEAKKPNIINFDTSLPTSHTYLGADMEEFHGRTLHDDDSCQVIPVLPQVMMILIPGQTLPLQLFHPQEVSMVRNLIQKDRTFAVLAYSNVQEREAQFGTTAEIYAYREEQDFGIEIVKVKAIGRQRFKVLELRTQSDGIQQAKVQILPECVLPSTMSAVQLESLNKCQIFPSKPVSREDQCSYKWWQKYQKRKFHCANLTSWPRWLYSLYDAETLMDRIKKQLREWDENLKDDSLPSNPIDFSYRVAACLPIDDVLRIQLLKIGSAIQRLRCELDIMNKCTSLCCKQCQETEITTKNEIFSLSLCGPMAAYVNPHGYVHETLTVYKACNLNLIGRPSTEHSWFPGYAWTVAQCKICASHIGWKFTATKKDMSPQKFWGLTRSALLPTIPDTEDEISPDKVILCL
Sequence (Q16531 whole entry partner): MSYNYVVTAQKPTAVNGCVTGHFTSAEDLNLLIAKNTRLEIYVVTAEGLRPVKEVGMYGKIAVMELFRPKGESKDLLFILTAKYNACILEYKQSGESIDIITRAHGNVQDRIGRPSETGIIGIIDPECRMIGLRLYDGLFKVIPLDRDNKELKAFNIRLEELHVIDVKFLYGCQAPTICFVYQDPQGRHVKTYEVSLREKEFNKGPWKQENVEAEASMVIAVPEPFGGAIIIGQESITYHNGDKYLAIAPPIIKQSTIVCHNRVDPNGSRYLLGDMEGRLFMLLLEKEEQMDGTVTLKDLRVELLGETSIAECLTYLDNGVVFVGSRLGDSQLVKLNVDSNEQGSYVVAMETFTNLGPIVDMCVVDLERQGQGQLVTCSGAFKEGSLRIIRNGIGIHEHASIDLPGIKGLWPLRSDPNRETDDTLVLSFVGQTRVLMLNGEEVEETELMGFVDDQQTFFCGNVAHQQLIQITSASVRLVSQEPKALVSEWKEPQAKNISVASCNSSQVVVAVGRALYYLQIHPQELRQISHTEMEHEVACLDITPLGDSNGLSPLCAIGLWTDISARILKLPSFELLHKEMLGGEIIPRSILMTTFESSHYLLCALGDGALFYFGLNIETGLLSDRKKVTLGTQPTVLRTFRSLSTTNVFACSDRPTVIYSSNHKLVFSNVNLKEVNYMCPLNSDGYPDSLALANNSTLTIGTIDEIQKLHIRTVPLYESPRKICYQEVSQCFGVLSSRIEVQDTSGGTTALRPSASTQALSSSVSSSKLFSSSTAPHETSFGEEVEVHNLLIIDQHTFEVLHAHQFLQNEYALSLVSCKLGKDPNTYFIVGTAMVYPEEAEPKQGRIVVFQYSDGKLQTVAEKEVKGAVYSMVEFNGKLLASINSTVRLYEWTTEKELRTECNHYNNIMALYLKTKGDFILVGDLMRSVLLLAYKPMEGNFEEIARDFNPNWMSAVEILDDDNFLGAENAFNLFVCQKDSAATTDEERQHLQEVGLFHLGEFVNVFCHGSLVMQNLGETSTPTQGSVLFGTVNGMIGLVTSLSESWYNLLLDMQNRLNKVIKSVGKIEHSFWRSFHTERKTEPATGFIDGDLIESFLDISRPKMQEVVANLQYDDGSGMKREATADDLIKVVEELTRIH
metric name: DC50
Answers without a unit are incomplete; give the number and then its unit.

Input line: Recorded DC50 of O=C1CCC(c2cccc(-c3ccc(Cc4cccnn4)cc3)c2Cl)C(=O)N1 (stereo not shown) [Compound 453] , please.
Output line: 0.0134 µM

Input line: Recorded DC50 of CC1CN(Cc2ccc(-c3cccc(C4CCC(=O)NC4=O)c3Cl)cc2)C(=O)C(C)O1 (stereo not shown) [Compound 267] , please.
Output line: 0.0115 µM

Input line: Recorded DC50 of CNc1ccc(-c2cccc(C3CCC(=O)NC3=O)c2Cl)cc1 (stereo not shown) [Compound 134] , please.
Output line: 0.0909 µM

Input line: Recorded DC50 of O=C1CCC(c2cccc(-c3ccc(-n4ccccc4=O)nc3)c2Cl)C(=O)N1 (stereo not shown) [Compound 477] , please.
Output line: 0.0656 µM

Where these numbers come from: patent US12257247B2
